Values were extracted from patent US6914045B2.

- Tested on: Staphylococcus sp.
- protocol: in vitro antibacterial evaluation, MIC by broth dilution
- Format: cell-based
- testConditions: broth dilution, 18 hours at 35° C.
quantityMeasured: MIC Coagulase Negative Staphylococcus (GC 4547) (µg/mL)

[
  {
    "molecule": "CC(c1ccccc1)C1NC(=O)CNC(=O)C(CO)NC(=O)C(C(O)C2CNC(=N)N2C2OC(CO)C(O)C(O)C2O)NC(=O)C(C(O)C2CNC(=N)N2)NC(=O)C(Cc2ccc(OC3OC(CO)C(OC4OC(CO)C(OCc5ccc(OCc6ccccc6)cc5)C(O)C4O)C(O)C3O)cc2)NC1=O (centres unmarked) [Example 231a]",
    "target": "Staphylococcus sp.",
    "valueUnit": "µg/mL",
    "measured": 1
  }
]

====

Let's look at some compounds and their measured MIC Streptococcus pneumoniae (ATCC 6301).
- System: Streptococcus sp.
- protocol: in vitro antibacterial evaluation, MIC by broth dilution
- Format: cell-based
- testConditions: broth dilution, 18 hours at 35° C.; strain ATCC 6301
quantityMeasured: MIC Streptococcus pneumoniae (ATCC 6301) (µg/mL)

[
  {
    "compound": "CC(c1ccccc1)C1NC(=O)CNC(=O)C(CO)NC(=O)C(C(O)C2CNC(=N)N2C2OC(CO)C(O)C(O)C2O)NC(=O)C(C(O)C2CNC(=N)N2)NC(=O)C(Cc2ccc(OC3OC(CO)C(OC4OC5COC(CC67CC8CC(CC(C8)C6)C7)OC5C(O)C4O)C(O)C3O)cc2)NC1=O (stereo not shown)",
    "valueUnit": "µg/mL",
    "comparisonOperator": "<",
    "measured": 0.06
  },
  {
    "compound": "N=C1NCC(C(O)C2NC(=O)C(Cc3ccc(OC4OC(CO)C(OC5OC(CO)C(O)C6OC7(OC56)C5CC6CC(C5)CC7C6)C(O)C4O)cc3)NC(=O)C(CC3CCCCC3)NC(=O)CNC(=O)C(CO)NC(=O)C(C(O)C3CNC(=N)N3C3OC(CO)C(O)C(O)C3O)NC2=O)N1 (stereo not shown) [Example 106a]",
    "valueUnit": "µg/mL",
    "comparisonOperator": "=",
    "measured": 0.12
  },
  {
    "compound": "CC(c1ccccc1)C1NC(=O)CNC(=O)C(CO)NC(=O)C(C(O)C2CNC(=N)N2C2OC(CO)C(O)C(O)C2O)NC(=O)C(C(O)C2CNC(=N)N2)NC(=O)C(Cc2ccc(OC3OC(CO)C(OC4OC5COC(Cc6ccccc6)OC5C(O)C4O)C(O)C3O)cc2)NC1=O (stereo not shown)",
    "valueUnit": "µg/mL",
    "comparisonOperator": "<",
    "measured": 0.06
  },
  {
    "compound": "CC(C)=CCCC(C)C1OCC2OC(OC3C(CO)OC(Oc4ccc(CC5NC(=O)C(C(C)c6ccccc6)NC(=O)CNC(=O)C(CO)NC(=O)C(C(O)C6CNC(=N)N6C6OC(CO)C(O)C(O)C6O)NC(=O)C(C(O)C6CNC(=N)N6)NC5=O)cc4)C(O)C3O)C(O)C(O)C2O1 (stereo not shown)",
    "valueUnit": "µg/mL",
    "comparisonOperator": "=",
    "measured": 0.25
  }
]

====

Listing of recorded MIC Enterococcus faecalis (ATCC 29212) by entry.
- Tested on: Enterococcus sp.
- protocol: in vitro antibacterial evaluation, MIC by broth dilution
- Assay type: cell-based
- testConditions: broth dilution, inoculum 5×10^5 CFU/mL, 18 hours at 35° C.; strain ATCC 29212
quantityMeasured: MIC Enterococcus faecalis (ATCC 29212) (µg/mL)

[
  {
    "compound": "CC(c1ccccc1)C1NC(=O)CNC(=O)C(CO)NC(=O)C(C(O)C2CNC(=N)N2C2OC(CO)C(O)C(O)C2O)NC(=O)C(C(O)C2CNC(=N)N2)NC(=O)C(Cc2ccc(OC3OC(CO)C(OC4OC5COC(c6ccc(-c7ccc(Cl)cc7)cc6)OC5C(O)C4O)C(O)C3O)cc2)NC1=O (stereo not shown)",
    "valueUnit": "µg/mL",
    "measured": 4
  },
  {
    "compound": "CCCC(C)C1OCC2OC(OC3C(CO)OC(Oc4ccc(CC5NC(=O)C(C(C)c6ccc(Cl)cc6)NC(=O)CNC(=O)C(CO)NC(=O)C(C(O)C6CNC(=N)N6C6OC(CO)C(O)C(O)C6O)NC(=O)C(C(O)C6CNC(=N)N6)NC5=O)cc4)C(O)C3O)C(O)C(O)C2O1 (stereo not shown)",
    "valueUnit": "µg/mL",
    "measured": 2
  },
  {
    "compound": "CC(c1ccccc1)C1NC(=O)CNC(=O)C(CO)NC(=O)C(C(O)C2CNC(=N)N2C2OC(CO)C(O)C(O)C2O)NC(=O)C(C(O)C2CNC(=N)N2)NC(=O)C(Cc2ccc(OC3OC(CO)C(OC4OC(CO)C(O)C(OCc5ccc(OCc6ccccc6)cc5)C4O)C(O)C3O)cc2)NC1=O (stereo not shown) [Example 231c]",
    "valueUnit": "µg/mL",
    "measured": 4
  },
  {
    "compound": "N=C1NCC(C(O)C2NC(=O)C(Cc3ccc(OC4OC(CO)C(OC5OC6COC(CCc7ccccc7)OC6C(O)C5O)C(O)C4O)cc3)NC(=O)C(CC3CCCCC3)NC(=O)CNC(=O)C(CO)NC(=O)C(C(O)C3CNC(=N)N3C3OC(CO)C(O)C(O)C3O)NC2=O)N1 (stereo not shown)",
    "valueUnit": "µg/mL",
    "measured": 1
  }
]

====

- Tested on: Streptococcus sp.
- protocol: in vitro antibacterial evaluation, MIC by broth dilution
- Format: cell-based
- testConditions: Streptococcus pneumoniae (ATCC 6301); broth dilution, 18 hours at 35° C.
Measured MIC Streptococcus pneumoniae (ATCC 6301) accompanies every entry in the list below.

[
  {
    "compound": "CC(c1ccccc1)C1NC(=O)CNC(=O)C(CO)NC(=O)C(C(O)C2CNC(=N)N2C2OC(CO)C(O)C(O)C2O)NC(=O)C(C(O)C2CNC(=N)N2)NC(=O)C(Cc2ccc(OC3OC(CO)C(OC4OC5COC(C67CC8CC(CC(C8)C6)C7)OC5C(O)C4O)C(O)C3O)cc2)NC1=O (stereo not shown) [Example 127]",
    "target": "Streptococcus sp.",
    "MIC Streptococcus pneumoniae (ATCC 6301)": "<0.12 µg/mL"
  },
  {
    "compound": "CC(c1ccccc1)C1NC(=O)CNC(=O)C(CO)NC(=O)C(C(O)C2CNC(=N)N2C2OC(CO)C(O)C(O)C2O)NC(=O)C(C(O)C2CNC(=N)N2)NC(=O)C(Cc2ccc(OC3OC(CO)C(OC4OC5COC(CC6CCCCC6)OC5C(O)C4O)C(O)C3O)cc2)NC1=O (stereo not shown) [Example 122]",
    "target": "Streptococcus sp.",
    "MIC Streptococcus pneumoniae (ATCC 6301)": "<0.06 µg/mL"
  },
  {
    "compound": "Cc1cc(C2OCC3OC(OC4C(CO)OC(Oc5ccc(CC6NC(=O)C(C(C)c7ccccc7)NC(=O)CNC(=O)C(CO)NC(=O)C(C(O)C7CNC(=N)N7C7OC(CO)C(O)C(O)C7O)NC(=O)C(C(O)C7CNC(=N)N7)NC6=O)cc5)C(O)C4O)C(O)C(O)C3O2)ccc1[N+](=O)[O-] (stereo not shown) [Example 151]",
    "target": "Streptococcus sp.",
    "MIC Streptococcus pneumoniae (ATCC 6301)": "1 µg/mL"
  },
  {
    "compound": "CC(c1ccccc1)C1NC(=O)CNC(=O)C(CO)NC(=O)C(C(O)C2CNC(=N)N2C2OC(CO)C(O)C(O)C2O)NC(=O)C(C(O)C2CNC(=N)N2)NC(=O)C(Cc2ccc(OC3OC(CO)C(OC4OC5COC(c6cccc(-c7ccccc7)c6)OC5C(O)C4O)C(O)C3O)cc2)NC1=O (stereo not shown) [Example 154]",
    "target": "Streptococcus sp.",
    "MIC Streptococcus pneumoniae (ATCC 6301)": "<0.06 µg/mL"
  }
]
